assay: Antiproliferative activity against human MRC5 cells assessed as reduction in cell growth measured after 48 hrs by sulforhodamine B assay; format: toxicity, cell-based
GI50 at 48 h for assorted molecules
Answer with a number only, understood to be in µM.

| structure.smiles | GI50 at 48 h / µM |
| --- | --- |
| [Br-].c1ccc([P+](CCCCCCOCCc2ccc3c(c2)OCO3)(c2ccccc2)c2ccccc2)cc1 | 62.7 |

Note: attention shifts to another entry.
Form: molecule = [Br-].c1ccc(CCOCCCCCC[P+](c2ccccc2)(c2ccccc2)c2ccccc2)cc1 ; GI50 at 48 h = 15.3

###

test system: HBL-100; assay: Antiproliferative activity against human HBL-100 cells assessed as reduction in cell growth; type: functional
attribute.measured: log10 of GI50 (log10 of the value in nM)
Short version: log10 scale, GI50, nM.

The examples below pair each entry with its known result.
| structure.smiles | target.under.test | log10 of GI50 |
| --- | --- | --- |
| COc1ccc(CCOCCCCC[P+](c2ccccc2)(c2ccccc2)c2ccccc2)cc1OC | HBL-100 | 3.62 |
| c1ccc(COc2ccc(CCOCCCCC[P+](c3ccccc3)(c3ccccc3)c3ccccc3)cc2)cc1 | HBL-100 | 1.92 |
| c1ccc(COc2ccc(CCOCCCCCC[P+](c3ccccc3)(c3ccccc3)c3ccccc3)cc2OCc2ccccc2)cc1 | HBL-100 | 2.67 |
| COc1ccc(CCOCCCCCCCCCCCC[P+](c2ccccc2)(c2ccccc2)c2ccccc2)cc1OC | HBL-100 | 2.41 |
| O=c1[nH]cc(F)c(=O)[nH]1 | HBL-100 | 3.64 |
| COc1ccc(CCOCCCCCCCCCCCC[P+](c2ccccc2)(c2ccccc2)c2ccccc2)cc1 | HBL-100 | 2.53 |

Form: molecule = c1ccc(COc2ccc(CCOCCCCC[P+](c3ccccc3)(c3ccccc3)c3ccccc3)cc2OCc2ccccc2)cc1 ; log10 of GI50 = 2.30

Form: molecule = COc1ccc(CCOCCCCCC[P+](c2ccccc2)(c2ccccc2)c2ccccc2)cc1OC ; log10 of GI50 = 2.74
